- tested_on: PfTrpB^2B9 (Pyrococcus furiosus, UniProt Q8U093, E17G/F274S/F95L/I16V/I68V/T292S/T321A/V384A)
- Construct: made in house; host or cells: E. coli BL21 E. cloni Express
- Sequence (Q8U093 other isoform, or with tags, fused parts or gaps I16V/E17G/I68V/F95L/F274S/T292S/T321A/V384A): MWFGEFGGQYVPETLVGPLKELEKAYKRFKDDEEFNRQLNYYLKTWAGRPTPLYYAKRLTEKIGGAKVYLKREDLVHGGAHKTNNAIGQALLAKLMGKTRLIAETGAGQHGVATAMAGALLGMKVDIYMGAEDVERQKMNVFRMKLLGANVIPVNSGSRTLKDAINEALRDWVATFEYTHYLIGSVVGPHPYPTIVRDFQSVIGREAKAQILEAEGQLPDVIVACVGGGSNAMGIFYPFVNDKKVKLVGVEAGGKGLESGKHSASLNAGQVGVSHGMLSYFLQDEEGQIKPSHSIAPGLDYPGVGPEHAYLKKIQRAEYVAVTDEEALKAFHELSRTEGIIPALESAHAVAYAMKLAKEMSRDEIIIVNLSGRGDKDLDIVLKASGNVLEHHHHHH
- procedure_summary: TTN of β-substitution reaction with L-Thr with different nucleophiles
- Format: biochemical
- assay_conditions: 25 mM nucleophile, 250 mM L-Thr, 24 hour reaction at 75° C., LC-MS
assay_readout: TTN
The response must contain the number and no unit.

Before answering, review these 3 worked examples.
Fc1ccc2[nH]ccc2c1 [5-Fluoroindole] ... 1300
c1ccc2[nH]ncc2c1 [Indazole] ... 500
Fc1cccc2[nH]ccc12 [4-Fluoroindole] ... 378

molecule Cc1cc2ccccc2[nH]1 [2-Methylindole] , TTN observed: 6400

molecule c1ccc2[nH]ccc2c1 [Indole] , TTN observed: 8200

molecule Cc1ccc2cc[nH]c2c1 [6-Methylindole] , TTN observed: 1100

Source of measurements: patent US12534748B2
